Assay: Primary qHTS for inhibitors of nuclear receptor binding SET domain protein 2 (NSD2) in an RCH-ACV wild type WT cells (2C) (AID 1645877); note: nearly all actives have a fitted effect of over 70% in size
Conditions: RCH-ACV (leukaemia line) NSD2 WT (2C) viability, CellTiter-Glo, 72 h; series mostly up to 44.9 µM
Inconclusive results are not listed. The source made the active and inactive calls. Calls come from the whole dose curve; as a rule, active = well fitted inhibition curve with a large enough effect; inconclusive = small, poorly fitted or top-dose-only effect; inactive = no such curve, though single readings can be large or run the other way.
Output constraint: value belongs to yes (1) (active), no (0) (inactive)

# structure smiles, class name
data = [
    ("CCC(=O)NC[C@H](Cc1ccc(OCCc2nc(-c3ccccc3)oc2C)cc1)N/C(C)=C\\C(=O)c1ccc(C(F)(F)F)cc1", "no (0)"),
    ("COc1ccc(-c2ccc3c(N4CCOC[C@@H]4C)nc(N4CCOC[C@@H]4C)nc3n2)cc1CO", "yes (1)"),
    ("C[C@H](NC(=O)c1c(N)nn2cccnc12)c1cc2cccc(C#Cc3cnn(C)c3)c2c(=O)n1-c1ccccc1", "yes (1)"),
    ("Cc1ccc(C(=O)OCc2ccc([C@@H](CN)C(=O)Nc3ccc4cnccc4c3)cc2)c(C)c1", "yes (1)"),
    ("C[C@]12CCCN1CC1=NNC(=O)c3cc(F)cc4[nH]c2c1c34", "yes (1)"),
    ("Nc1n[nH]c(N)c1N=Nc1ccc(O)cc1", "yes (1)"),
]

Task: What was the test verdict on O=C(NO)c1cnc(NC2(c3ccccc3)CC2)nc1 ?
Result: yes (1)

Task: What was the test verdict on CSc1ccc(C(=O)/C=C/c2cc(C)c(OC(C)(C)C(=O)O)c(C)c2)cc1 ?
Result: yes (1)

Task: What was the test verdict on CN1CCN(CCCNc2ncc(Cl)c(-c3cc4c(C(=O)NC5CC5)cccc4s3)n2)CC1 ?
Result: yes (1)

----------
Target: Rap guanine nucleotide exchange factor 4 (Homo sapiens) (UniProt Q8WZA2)
Sequence (Q8WZA2 whole entry, looked up): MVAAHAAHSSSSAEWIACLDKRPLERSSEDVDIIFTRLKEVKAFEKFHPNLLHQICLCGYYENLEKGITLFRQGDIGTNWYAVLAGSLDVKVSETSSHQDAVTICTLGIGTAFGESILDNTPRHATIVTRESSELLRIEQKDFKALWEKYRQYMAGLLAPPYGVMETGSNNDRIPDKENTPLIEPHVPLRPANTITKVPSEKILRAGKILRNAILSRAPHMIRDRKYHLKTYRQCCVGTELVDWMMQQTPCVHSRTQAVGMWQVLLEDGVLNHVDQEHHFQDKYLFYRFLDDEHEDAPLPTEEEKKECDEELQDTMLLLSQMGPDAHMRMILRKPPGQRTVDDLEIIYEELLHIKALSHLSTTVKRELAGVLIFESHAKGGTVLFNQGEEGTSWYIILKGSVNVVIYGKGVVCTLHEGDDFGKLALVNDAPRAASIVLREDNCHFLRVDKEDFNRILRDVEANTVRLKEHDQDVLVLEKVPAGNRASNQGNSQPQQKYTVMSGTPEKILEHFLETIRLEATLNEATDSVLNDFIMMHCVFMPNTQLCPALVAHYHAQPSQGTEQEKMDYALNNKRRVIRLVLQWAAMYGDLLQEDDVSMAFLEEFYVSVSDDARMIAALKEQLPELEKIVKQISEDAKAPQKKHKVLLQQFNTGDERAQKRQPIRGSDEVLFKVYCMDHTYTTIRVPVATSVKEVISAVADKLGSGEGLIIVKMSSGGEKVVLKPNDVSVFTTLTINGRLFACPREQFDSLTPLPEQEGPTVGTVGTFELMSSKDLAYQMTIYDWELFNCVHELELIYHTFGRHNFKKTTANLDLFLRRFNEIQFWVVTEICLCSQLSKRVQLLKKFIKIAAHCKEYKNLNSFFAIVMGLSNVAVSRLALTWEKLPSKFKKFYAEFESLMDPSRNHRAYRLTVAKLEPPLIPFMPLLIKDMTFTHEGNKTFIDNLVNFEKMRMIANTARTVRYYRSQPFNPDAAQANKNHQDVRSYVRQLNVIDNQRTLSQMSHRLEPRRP
Assay: Confirmatory qHTS for antagonist of cAMP-regulated guanine nucleotide exchange factor 4 (EPAC2) (AID 1645885); note: nearly all actives have a fitted effect of over 25% in size
Conditions: EPAC2 Rap1B-BODIPY-GDP exchange fluorescence, biochemical; series mostly up to 12.7 µM
Inconclusive results are not listed. Active and inactive are the calls of the source. Calls come from the whole dose curve; as a rule, active = well fitted inhibition curve with a large enough effect; inconclusive = small, poorly fitted or top-dose-only effect; inactive = no such curve, though single readings can be large or run the other way.
result type: outcome

# compound, target or test system, outcome
rows = [
    ("CCN(CC)c1nc(C#N)cc(-c2ccc(OC)cc2)n1", "Rap guanine nucleotide exchange factor 4 (Homo sapiens) (UniProt Q8WZA2)", "inactive"),
    ("CC(C)C1CC2=C(C(=O)OC(C)(C)O2)C(c2ccc(F)cc2)O1 (stereo not given)", "Rap guanine nucleotide exchange factor 4 (Homo sapiens) (UniProt Q8WZA2)", "inactive"),
    ("COc1ccc(CNC(=O)C(=O)Nc2ccc(OC)cc2OC)cc1", "Rap guanine nucleotide exchange factor 4 (Homo sapiens) (UniProt Q8WZA2)", "inactive"),
    ("Cc1cccc(NC(=O)Cn2c(O)c(N=NC(=O)c3ccncc3)c3ccccc32)c1", "Rap guanine nucleotide exchange factor 4 (Homo sapiens) (UniProt Q8WZA2)", "inactive"),
    ("Cc1ccc(CNC(=O)C(=O)NCCC2CCCCN2S(=O)(=O)c2cccs2)cc1 (stereo not given)", "Rap guanine nucleotide exchange factor 4 (Homo sapiens) (UniProt Q8WZA2)", "inactive"),
]

Task: Form field: reported outcome of O=C(N[C@@H](Cc1c[nH]c2ccccc12)C(=O)O)OCC1c2ccccc2-c2ccccc21
Result: inactive

Task: Form field: reported outcome of CC(=O)NC(CCS(C)(=O)=O)C(=O)Nc1cc(C)on1 (stereo not given)
Result: inactive

Task: Form field: reported outcome of CCOc1ccccc1C(=O)N(Cc1cccs1)c1ccc(Cl)cc1
Result: inactive

Task: Form field: reported outcome of C=CCOc1ccc(C(c2c(C(=O)O)[nH]c3ccccc23)c2c(C(=O)O)[nH]c3ccccc23)cc1
Result: inactive

Task: Form field: reported outcome of Cc1ccccc1OCCn1cnc2c(N)ncnc21
Result: inactive
